Target Entity: IgE-Tb binding to soluble IgE receptor FcεRIα-Y131A-AF488 (Homo sapiens, UniProt P0DOX4, N265Q/N371Q)
Construct: 86 nmoles of IgE-Fc(N265Q, N371Q) (Young et al., 1995)
Sequence (P0DOX4 224-547 N265Q/N371Q limits assumed): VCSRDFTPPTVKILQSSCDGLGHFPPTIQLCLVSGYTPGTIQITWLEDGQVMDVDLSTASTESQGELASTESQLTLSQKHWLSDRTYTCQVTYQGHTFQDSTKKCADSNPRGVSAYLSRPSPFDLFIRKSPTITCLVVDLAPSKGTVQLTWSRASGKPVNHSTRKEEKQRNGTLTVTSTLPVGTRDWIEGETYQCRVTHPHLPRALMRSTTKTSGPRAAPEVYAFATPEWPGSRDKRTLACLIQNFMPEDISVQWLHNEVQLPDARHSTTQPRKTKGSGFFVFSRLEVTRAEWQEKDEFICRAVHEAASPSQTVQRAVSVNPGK
Protocol Details: In vitro FRET assay of IgE-Tb binding to FcεRIα receptor (protocol for most examples, 2 hours incubation)
Settings: 5 nM IgE-Tb, 25 nM FcεRIα-Y131A-AF488; incubated 2 hours at room temperature; read-out: FRET IC50 range
Hi there, I'd appreciate the recorded IC50 for every entry that follows.

// lookup IC50 for Cc1cc(-n2ccnc2NC2CCc3cc4cnc(C5CC5)cc4c(S(=O)(=O)NCC(C)C)c3C2)n(C)n1 (centres unmarked)
100 to 1000 nM

Please answer likewise for Cc1cc(Nc2nncn2C2CCc3cc4cnc(C5CC5)cc4c(S(=O)(=O)NCC(C)C)c3C2)n(C)n1 (centres unmarked)
1 to 50 nM

Please answer likewise for Cc1ccc2c(C(=O)NC3CCc4cc5cnc(C6CC6)cc5c(S(=O)(=O)NCC(C)C)c4C3)c[nH]c2c1 (centres unmarked)
100 to 1000 nM

Please answer likewise for "Cc1nnc(-c2ccc(N[C@@H]3CCc4cc5cnc(C6CC6)cc5c(S(=O)(=O)NCC(C)C)c4C3)cn2)o1"
100 to 1000 nM

Please answer likewise for CC(C)CNS(=O)(=O)c1c2c(cc3cnc(C4CC4)cc13)CC(c1ncc(-c3cccnc3)[nH]1)CC2 (centres unmarked)
100 to 1000 nM

Please answer likewise for CC(C)CNS(=O)(=O)c1c2c(cc3cnc(C4CC4)cc13)CCC(c1ncc(-c3cccnc3)[nH]1)C2 (centres unmarked)
1 to 50 nM

Please answer likewise for Cc1cc(Nc2nncn2C2CCc3cc4cnc(C5CC5)cc4c(S(=O)(=O)NCC(C)(C)F)c3C2)n(C)n1 (centres unmarked)
100 to 1000 nM

Please answer likewise for CC(C)CNS(=O)(=O)c1c2c(cc3cnc(C4CC4)cc13)CCC(n1cnnc1Nc1cccnc1)C2 (centres unmarked)
1 to 50 nM
